FYI, the data here is from the supplement of paper PMC3545927.

test target: furin, P09958;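 further: purified furin at 1:10 enzyme:substrate in 50 mM HEPES pH 7.5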
Sequence (P09958 whole entry): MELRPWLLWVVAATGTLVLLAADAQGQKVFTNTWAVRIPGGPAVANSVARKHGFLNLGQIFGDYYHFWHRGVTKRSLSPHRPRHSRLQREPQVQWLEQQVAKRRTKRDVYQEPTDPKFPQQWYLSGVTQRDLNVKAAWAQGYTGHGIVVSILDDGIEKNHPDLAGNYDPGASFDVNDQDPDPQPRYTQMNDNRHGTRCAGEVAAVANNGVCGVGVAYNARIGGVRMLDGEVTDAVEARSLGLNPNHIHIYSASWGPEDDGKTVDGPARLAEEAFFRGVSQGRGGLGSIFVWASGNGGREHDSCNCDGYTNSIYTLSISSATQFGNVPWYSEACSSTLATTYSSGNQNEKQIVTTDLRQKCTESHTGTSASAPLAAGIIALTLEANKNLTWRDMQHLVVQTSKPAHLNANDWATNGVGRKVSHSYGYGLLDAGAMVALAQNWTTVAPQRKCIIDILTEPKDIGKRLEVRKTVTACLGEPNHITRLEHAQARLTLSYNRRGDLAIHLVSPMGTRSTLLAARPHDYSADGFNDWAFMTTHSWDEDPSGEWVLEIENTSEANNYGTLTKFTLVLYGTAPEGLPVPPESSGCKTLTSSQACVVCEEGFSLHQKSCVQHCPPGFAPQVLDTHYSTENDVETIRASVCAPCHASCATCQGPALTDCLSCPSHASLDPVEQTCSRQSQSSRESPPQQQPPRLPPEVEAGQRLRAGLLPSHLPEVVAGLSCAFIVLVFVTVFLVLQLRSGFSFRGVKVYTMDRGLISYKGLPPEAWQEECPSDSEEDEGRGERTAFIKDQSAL
assay notes: furin cleavage Z-score vs untreated control; higher = more cleavage, active = 3.5 or more, inactive = 1 or less, 8 variable residues between constant flanks
experimental parameters: 15 min
Some of the results follow. No count for the full screen is at hand.
Possible outcomes: active, inactive

[
  {
    "residues": "CARSLREFEEAGNASASA [FS-3087]",
    "group label": "inactive"
  },
  {
    "residues": "CARRWREVEEAGNASASA [FS-2803]",
    "group label": "inactive"
  },
  {
    "residues": "CARYPRDVRDAGNASASA [FS-2538]",
    "group label": "active"
  },
  {
    "residues": "CAFREVPCHRAGNASASA [HC2427]",
    "group label": "inactive"
  },
  {
    "residues": "CARDGRYTPCAGNASASA [FS-2903]",
    "group label": "inactive"
  },
  {
    "residues": "CARYPRNVEEAGNASASA [FS-2850]",
    "group label": "active"
  },
  {
    "residues": "CAVPPRYPRDAGNASASA [FS-311]",
    "group label": "active"
  }
]
